- Tested on: NCI-H661
- Protocol notes: relative viability (nuclei count vs DMSO), 5 days (fraction); higher = more cells survive
- Study conditions: first compound 0.01581 µM
Quantity name: relative viability
The answer should be written as a number, with no unit following it.

Recorded relative viability, per entry:
Nc1ccn([C@@H]2O[C@H](CO)[C@@H](O)[C@@H]2O)c(=O)n1 [Cytarabine] + Nc1nc2[nH]cc(CCc3ccc(C(=O)N[C@@H](CCC(=O)O)C(=O)O)cc3)c2c(=O)[nH]1 [Pemetrexed] (partner 0.2 µM) = 0.849
COc1cc2nccc(Oc3ccc(NC(=O)Nc4cc(C)on4)c(Cl)c3)c2cc1OC [Tivozanib] + CC(=O)c1c(C)c2cnc(Nc3ccc(N4CCNCC4)cn3)nc2n(C2CCCC2)c1=O [Palbociclib] (partner 0.5 µM) = 0.387

# next molecule below
Recall and state the measured relative viability for COc1cc2nccc(Oc3ccc(NC(=O)Nc4cc(C)on4)c(Cl)c3)c2cc1OC [Tivozanib] + COc1cccc2cc(-c3nc([C@H]4CC[C@H](C(=O)O)CC4)n4ncnc(N)c34)[nH]c12 [OSI-027] (partner 0.5 µM) .
0.73

* * *

- Tested on: NCI-H650
- Protocol notes: relative viability (nuclei count vs DMSO), 5 days (fraction); higher = more cells survive
- Study conditions: first compound 50 µM
Quantity name: relative viability

Recorded relative viability, per entry:
O=C(O)CCCCC(CCSCc1ccccc1)SCc1ccccc1 (stereo not drawn) [CPI-613] + Nc1ncn([C@H]2C[C@H](O)[C@@H](CO)O2)c(=O)n1 [Decitabine] (partner 2 µM) = 0.299
O=C(O)CCCCC(CCSCc1ccccc1)SCc1ccccc1 (stereo not drawn) [CPI-613] + CCNC(=O)c1noc(-c2cc(C(C)C)c(O)cc2O)c1-c1ccc(CN2CCOCC2)cc1 [Luminespib] (partner 0.01 µM) = 0.852
O=C(O)CCCCC(CCSCc1ccccc1)SCc1ccccc1 (stereo not drawn) [CPI-613] + COc1cc2c(Oc3ccc(NC(=O)C4(C(=O)Nc5ccc(F)cc5)CC4)cc3F)ccnc2cc1OCCCN1CCOCC1 [Foretinib] (partner 0.25 µM) = 0.979

Report relative viability from NCI-H650 testing of O=C(O)CCCCC(CCSCc1ccccc1)SCc1ccccc1 (stereo not drawn) [CPI-613] + N=C(N)NC(=N)NCCc1ccccc1 [Phenformin] (partner 250 µM)
0.448

Report relative viability from NCI-H650 testing of O=C(O)CCCCC(CCSCc1ccccc1)SCc1ccccc1 (stereo not drawn) [CPI-613] + CC(C)C[C@H](NC(=O)[C@H](Cc1ccccc1)NC(=O)c1cnccn1)B(O)O [Bortezomib] (partner 0.002 µM)
0.92

Report relative viability from NCI-H650 testing of O=C(O)CCCCC(CCSCc1ccccc1)SCc1ccccc1 (stereo not drawn) [CPI-613] + NC(=O)Nc1cc(-c2cccc(F)c2)sc1C(=O)N[C@H]1CCCNC1 [AZD7762] (partner 0.2 µM)
1.03

Report relative viability from NCI-H650 testing of O=C(O)CCCCC(CCSCc1ccccc1)SCc1ccccc1 (stereo not drawn) [CPI-613] + Cc1nc(NC(=O)N2CCC[C@H]2C(N)=O)sc1-c1ccnc(C(C)(C)C(F)(F)F)c1 [Alpelisib] (partner 2 µM)
1.06

Report relative viability from NCI-H650 testing of O=C(O)CCCCC(CCSCc1ccccc1)SCc1ccccc1 (stereo not drawn) [CPI-613] + COc1cccc2cc(-c3nc([C@H]4CC[C@H](C(=O)O)CC4)n4ncnc(N)c34)[nH]c12 [OSI-027] (partner 0.5 µM)
0.466

* * *

- Tested on: NCI-H1793
- Protocol notes: relative viability (nuclei count vs DMSO), 5 days (fraction); higher = more cells survive
- Study conditions: first compound 1.265 µM
Let's look at some compounds and their measured relative viability.
The answer should be written as a number, with no unit following it.

Cc1sc2c(c1C)C(c1ccc(Cl)cc1)=N[C@@H](CC(=O)OC(C)(C)C)c1nnc(C)n1-2 [JQ1] + CC1(C)CCC(c2ccc(Cl)cc2)=C(CN2CCN(c3ccc(C(=O)NS(=O)(=O)c4ccc(N[C@H](CCN5CCOCC5)CSc5ccccc5)c(S(=O)(=O)C(F)(F)F)c4)cc3)CC2)C1 [Navitoclax] (partner 0.5 µM) = 0.444

Recall and state the measured relative viability for Cc1sc2c(c1C)C(c1ccc(Cl)cc1)=N[C@@H](CC(=O)OC(C)(C)C)c1nnc(C)n1-2 [JQ1] + COc1cc2c(Oc3ccc(NC(=O)C4(C(=O)Nc5ccc(F)cc5)CC4)cc3F)ccnc2cc1OCCCN1CCOCC1 [Foretinib] (partner 0.25 µM) .
0.728

* * *

Let's look at some compounds and their measured relative viability.
- Test system: NCI-H2228
- Protocol notes: relative viability (nuclei count vs DMSO), 5 days (fraction); higher = more cells survive
- Study conditions: first compound 0.01581 µM
The answer should be written as a number, with no unit following it.

Recall and state the measured relative viability for COc1cc2nccc(Oc3ccc(NC(=O)Nc4cc(C)on4)c(Cl)c3)c2cc1OC [Tivozanib] + CS(=O)(=O)CCNCc1ccc(-c2ccc3ncnc(Nc4ccc(OCc5cccc(F)c5)c(Cl)c4)c3c2)o1 [Lapatinib] (partner 2 µM) .
1.1

Recall and state the measured relative viability for COc1cc2nccc(Oc3ccc(NC(=O)Nc4cc(C)on4)c(Cl)c3)c2cc1OC [Tivozanib] + Cc1cc(Nc2cc(N3CCN(C)CC3)nc(Sc3ccc(NC(=O)C4CC4)cc3)n2)n[nH]1 [Tozasertib] (partner 0.1 µM) .
0.235

* * *

Let's look at some molecules and their measured relative viability.
- Test system: UMC-11
- Protocol notes: relative viability (nuclei count vs DMSO), 5 days (fraction); higher = more cells survive
- Study conditions: first compound 0.02 µM
The answer should be written as a number, with no unit following it.

CC(=O)O[C@@]12CO[C@@H]1C[C@H](O)[C@@]1(C)C(=O)[C@H](O)C3=C(C)[C@@H](OC(=O)[C@H](O)[C@@H](NC(=O)OC(C)(C)C)c4ccccc4)C[C@@](O)([C@@H](OC(=O)c4ccccc4)[C@H]21)C3(C)C [Docetaxel] + O=C(CCCCCCC(=O)Nc1ccccc1)NO [Vorinostat] (partner 1 µM) = 0.108
CC(=O)O[C@@]12CO[C@@H]1C[C@H](O)[C@@]1(C)C(=O)[C@H](O)C3=C(C)[C@@H](OC(=O)[C@H](O)[C@@H](NC(=O)OC(C)(C)C)c4ccccc4)C[C@@](O)([C@@H](OC(=O)c4ccccc4)[C@H]21)C3(C)C [Docetaxel] + C[C@]1(O)C[C@@H](c2nc(-c3ccc4ccc(-c5ccccc5)nc4c3)c3c(N)nccn32)C1 [Linsitinib] (partner 1 µM) = 0.183

# next molecule below
Recall and state the measured relative viability for CC(=O)O[C@@]12CO[C@@H]1C[C@H](O)[C@@]1(C)C(=O)[C@H](O)C3=C(C)[C@@H](OC(=O)[C@H](O)[C@@H](NC(=O)OC(C)(C)C)c4ccccc4)C[C@@](O)([C@@H](OC(=O)c4ccccc4)[C@H]21)C3(C)C [Docetaxel] + CS(=O)(=O)CCNCc1ccc(-c2ccc3ncnc(Nc4ccc(OCc5cccc(F)c5)c(Cl)c4)c3c2)o1 [Lapatinib] (partner 2 µM) .
0.148

* * *

Let's look at some compounds and their measured relative viability.
- System: LCLC-97TM1
- Protocol notes: relative viability (nuclei count vs DMSO), 5 days (fraction); higher = more cells survive
- Study conditions: first compound 0.05 µM
The answer should be written as a number, with no unit following it.

Report relative viability from LCLC-97TM1 testing of Nc1ccn([C@@H]2O[C@H](CO)[C@@H](O)[C@@H]2O)c(=O)n1 [Cytarabine] + CC1(C)CCC(c2ccc(Cl)cc2)=C(CN2CCN(c3ccc(C(=O)NS(=O)(=O)c4ccc(N[C@H](CCN5CCOCC5)CSc5ccccc5)c(S(=O)(=O)C(F)(F)F)c4)cc3)CC2)C1 [Navitoclax] (partner 0.5 µM)
0.171

Report relative viability from LCLC-97TM1 testing of Nc1ccn([C@@H]2O[C@H](CO)[C@@H](O)[C@@H]2O)c(=O)n1 [Cytarabine] + CC(=O)Nc1cccc(-n2c(=O)n(C3CC3)c(=O)c3c(Nc4ccc(I)cc4F)n(C)c(=O)c(C)c32)c1 [Trametinib] (partner 0.02 µM)
0.173

Report relative viability from LCLC-97TM1 testing of Nc1ccn([C@@H]2O[C@H](CO)[C@@H](O)[C@@H]2O)c(=O)n1 [Cytarabine] + O=C(CCCCCCC(=O)Nc1ccccc1)NO [Vorinostat] (partner 1 µM)
0.166

Report relative viability from LCLC-97TM1 testing of Nc1ccn([C@@H]2O[C@H](CO)[C@@H](O)[C@@H]2O)c(=O)n1 [Cytarabine] + COc1cc2c(Oc3ccc(NC(=O)C4(C(=O)Nc5ccc(F)cc5)CC4)cc3F)ccnc2cc1OCCCN1CCOCC1 [Foretinib] (partner 0.25 µM)
0.749

The reported measurements were obtained from the supplement of paper PMC10307832.
